FYI, the data here is from PubChem BioAssay AID463173.

system: DeltatarO mutant; experiment: S. aureus survival, RN4220 and DeltatarO strains – OD600, teichoic acid synthesis inhibitors, primary screen (AID 463173); conditions: S. aureus RN4220 wild type/DeltatarO growth, OD600, 18 h, active compounds read low, screened at 18.75 µg/mL (by protocol)
Out of some 52,000 compounds screened, about 4,300 (8.3%) were called active. The entries come from a sample that favours actives as a whole.
Each entry belongs to exactly one class, chosen by where its survival falls: low-valued (below 70%), mid-valued (70% to below 80%), high-valued (80% or more)

Example results:
COCc1cc(C)nc2c1C(=O)NC(c1ccc(NC(C)=O)cc1)N2Cc1ccccc1 (configuration not stated) ... mid-valued
CCOc1ccc(NC(=O)c2c(NCc3cc(OC)c(OC)cc3OC)sc3c2CCCC3)cc1 ... mid-valued
CCc1ccc(NC(=O)c2sc3nc(C)c(Cl)c(C)c3c2NC(=O)c2ccccc2OC)cc1 ... high-valued
Cc1nn(C)c2c1c(-c1ccccc1)cc(=O)n2C(C)C(=O)NCCc1ccc(Cl)cc1 (configuration not stated) ... high-valued
Cc1nnc(SCC(=O)O)n1N ... high-valued
C=Cc1ccc(Cn2c(C)c(CNCCc3ccccc3C)c(C(=O)O)c2C)cc1 ... low-valued

Q. Lab log: CCOc1ccc(NC(=O)C2CCCN(S(=O)(=O)c3ccc(Br)s3)C2)cc1 (configuration not stated) — assign survival category
A. high-valued

Q. Param item: CC(C)c1nn2c(=O)cc(COC(=O)C3CCCCC3)nc2s1
A. high-valued

Q. # repeat for Cn1c(N2CCN(S(=O)(=O)c3ccc(Cl)cc3)CC2)nc2ccccc21
A. high-valued

Q. Also, CCN1C(C(=O)c2ccccc2)=C(OC(=O)COc2ccccc2)c2ccccc2S1(=O)=O please.
A. low-valued

----------
test system: DeltatarO mutant; test: S. aureus survival, RN4220 and DeltatarO strains – OD600, teichoic acid synthesis inhibitors, primary screen (AID 463173); conditions: S. aureus RN4220 wild type/DeltatarO growth, OD600, 18 h, active compounds read low, screened at 18.75 µg/mL (by protocol)
In all, about 52,000 compounds went through this assay and about 4,300 (8.3%) were called active. Only a selection was taken, and actives are over-represented in it overall.
Provide the reported survival of each item.
One number for each entry, in %.

Solved cases (2 shown):
CC1CCc2c(sc(NC(=O)C3c4ccccc4Oc4ccccc43)c2C(=O)OC(C)C)C1 (stereo unspecified) ... 47
CCOC(=O)c1sc(NC(=O)C2c3ccccc3Oc3ccccc32)c(C#N)c1C ... 72

Go through the list and state survival for each entry.
1. S=c1oc(-c2ccccc2)nn1CNc1ccccc1
2. Cc1ccc(-c2nn(CO)c(=S)o2)cc1
3. CCOC(=O)c1sc(NC(=O)C2c3ccccc3Oc3ccccc32)c(C(=O)OCC)c1C
4. CCOC(=O)/C(C#N)=C/C1=C(N)CC(C)(C)OC1

A.
1. 83
2. 48
3. 124
4. 95

----------
test system: DeltatarO mutant; assay: S. aureus survival, RN4220 and DeltatarO strains – OD600, teichoic acid synthesis inhibitors, primary screen (AID 463173); settings: S. aureus RN4220 wild type/DeltatarO growth, OD600, 18 h, active compounds read low, screened at 18.75 µg/mL (by protocol)
The campaign covered roughly 52,000 compounds. About 4,300 (8.3%) were called active. Many of the other results were omitted from the sample, so actives are more common in it than they were.
Hi there, I'd appreciate the recorded survival for every entry that follows.

Example cases with answers are listed next.
CSc1ccc(CCNC(=O)C2CCN(c3ncnc4c3nc3n4CCCCC3)CC2)cc1 ... 79% (inactive)
CCCCC(Sc1nc2cc3c(cc2c(=O)n1CCCC(=O)NCc1ccc2c(c1)OCO2)OCO3)C(=O)OCC (stereo unspecified) ... 82% (inactive)
Cc1ccc(NC(=O)CCNS(=O)(=O)c2ccc3c(c2)CCCC(=O)N3)cc1 ... 77% (inactive)
COc1cccc(NC(=O)CSc2nc(=O)n(Cc3ccco3)c3c2CCC3)c1 ... 90% (inactive)
COc1cc(NC(=O)CN(C)S(=O)(=O)c2ccc3c(c2)CCCC(=O)N3)cc(OC)c1OC ... 70% (inactive)
CCN(c1cccc(C)c1)S(=O)(=O)c1c(C)nc2sc(C)cn2c1=O ... 73% (inactive)

Quick request: survival for each listed item, please.
1. O=C(CCC1N=C2c3ccccc3N=C(SCC(=O)Nc3ccccc3F)N2C1=O)NCc1cccs1 (stereo unspecified)
2. COc1ccc(Cn2ccn(Cc3cccc(Cl)c3)c(=O)c2=O)cc1

A.
96% (inactive)
112% (inactive)

Would you be so kind as to report survival for each listed record?
1. COc1cc(-c2cc(OC)c3c(C)oc(C)c3c(=O)c2)ccc1OC(=O)c1ccc(C)cc1
2. CCc1ccc(NS(=O)(=O)c2ccc3[nH]cc(C(=O)NC4CCCC4)c(=O)c3c2)cc1

A.
1. 88% (inactive)
2. 8% (active)
